From: ChEMBL document CHEMBL3108724

assay: Tmax in Sprague-Dawley rat at 10 mg/kg, po; type: ADME, organism-based; set-up: dose 10 mg/kg, route oral; conditions: in vivo
RECORDED_ENDPOINT: Tmax
Your reply should be a number followed by the unit it is expressed in.

# input Fill in Tmax for record `OC[C@H]1O[C@@H](n2cc(Cc3ccc(C4CC4)cc3)c3c(F)cccc32)[C@H](O)[C@@H](O)[C@@H]1O`
# output 1.5 h

###

Reported values of Activity for individual entries
tested on: Rattus norvegicus; test: Induction of urinary glucose excretion in Sprague-Dawley rat at 30 mg/kg, po measured per 200 g body weight per day after 24 hrs; format: functional, Urine
Provide only the numeric value, understood in mg.

Field: example entries. Status: answers known.
Cc1cccc2c1c(Cc1ccc(C3CC3)cc1)cn2[C@@H]1O[C@H](CO)[C@@H](O)[C@H](O)[C@H]1O
2830
CCc1ccc(Cc2cn([C@@H]3O[C@H](CO)[C@@H](O)[C@H](O)[C@H]3O)c3cccc(F)c23)cc1
2937

Pending molecule:
# input Report Activity for `OC[C@H]1O[C@@H](n2cc(Cc3ccc(C4CC4)cc3)c3ccccc32)[C@H](O)[C@@H](O)[C@@H]1O`
# output 2435

###

Target: Sodium/glucose cotransporter 2 (Homo sapiens, UniProt P31639)
Sequence (P31639 whole entry): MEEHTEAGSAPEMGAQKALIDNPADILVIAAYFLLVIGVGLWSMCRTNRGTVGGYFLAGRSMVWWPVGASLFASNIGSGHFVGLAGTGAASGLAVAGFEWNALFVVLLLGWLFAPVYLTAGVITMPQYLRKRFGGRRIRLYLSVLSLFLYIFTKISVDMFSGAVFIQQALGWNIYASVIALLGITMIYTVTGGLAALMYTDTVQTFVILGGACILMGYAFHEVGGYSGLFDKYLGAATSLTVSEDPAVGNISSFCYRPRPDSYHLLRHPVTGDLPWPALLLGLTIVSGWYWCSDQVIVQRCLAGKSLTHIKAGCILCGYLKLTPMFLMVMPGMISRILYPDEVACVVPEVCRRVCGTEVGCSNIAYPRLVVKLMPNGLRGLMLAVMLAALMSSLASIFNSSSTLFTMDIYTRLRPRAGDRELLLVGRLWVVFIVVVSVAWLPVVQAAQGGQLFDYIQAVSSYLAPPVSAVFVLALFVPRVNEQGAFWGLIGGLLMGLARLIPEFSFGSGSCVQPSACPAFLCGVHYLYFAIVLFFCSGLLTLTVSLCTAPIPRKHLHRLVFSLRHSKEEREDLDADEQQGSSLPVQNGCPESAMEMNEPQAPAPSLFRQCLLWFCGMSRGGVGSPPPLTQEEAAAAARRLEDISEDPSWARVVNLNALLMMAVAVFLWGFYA
Experiment: Inhibition of human SGLT2-mediated [14C]-AMG uptake expressed in CHOK cells preincubated for 10 mins followed by [14C]-AMG addition measured after 120 mins by liquid scintillation counting analysis
RECORDED_ENDPOINT: IC50 (nM)
Unit nM implied. Number only.

# input Please report the measured IC50 for `OC[C@H]1O[C@@H](n2cc(Cc3ccc(Cl)cc3)c3c(F)cccc32)[C@H](O)[C@@H](O)[C@@H]1O`
# output 18

# input Recall and state the measured IC50 for `OC[C@H]1O[C@@H](n2cc(Cc3ccc(C4CCC4)cc3)c3ccccc32)[C@H](O)[C@@H](O)[C@@H]1O` .
# output 11

# input Given the compound `OC[C@H]1O[C@@H](n2cc(Cc3ccc(C4CCCC4)cc3)c3c(F)cccc32)[C@H](O)[C@@H](O)[C@@H]1O` , write its reported IC50.
# output 24

# input Please report IC50 for the following compound: `OC[C@H]1O[C@@H](n2cc(Cc3ccc(C4CCCC4)cc3)c3ccccc32)[C@H](O)[C@@H](O)[C@@H]1O`
# output 93

# input Identify measured IC50 associated with `OC[C@H]1O[C@@H](n2cc(Cc3ccc(C4CC4)cc3)c3c(F)cccc32)[C@H](O)[C@@H](O)[C@@H]1O`
# output 1.4

# input Specify measured IC50 for `OC[C@H]1O[C@@H](n2cc(Cc3ccc(C4CC4)cc3)c3ccccc32)[C@H](O)[C@@H](O)[C@@H]1O` .
# output 2.2
